molecular target: CYP1A2 (Homo sapiens, UniProt P05177); assay: in vitro; conditions: microsomes, pH 7.4
Sequence (P05177 whole entry): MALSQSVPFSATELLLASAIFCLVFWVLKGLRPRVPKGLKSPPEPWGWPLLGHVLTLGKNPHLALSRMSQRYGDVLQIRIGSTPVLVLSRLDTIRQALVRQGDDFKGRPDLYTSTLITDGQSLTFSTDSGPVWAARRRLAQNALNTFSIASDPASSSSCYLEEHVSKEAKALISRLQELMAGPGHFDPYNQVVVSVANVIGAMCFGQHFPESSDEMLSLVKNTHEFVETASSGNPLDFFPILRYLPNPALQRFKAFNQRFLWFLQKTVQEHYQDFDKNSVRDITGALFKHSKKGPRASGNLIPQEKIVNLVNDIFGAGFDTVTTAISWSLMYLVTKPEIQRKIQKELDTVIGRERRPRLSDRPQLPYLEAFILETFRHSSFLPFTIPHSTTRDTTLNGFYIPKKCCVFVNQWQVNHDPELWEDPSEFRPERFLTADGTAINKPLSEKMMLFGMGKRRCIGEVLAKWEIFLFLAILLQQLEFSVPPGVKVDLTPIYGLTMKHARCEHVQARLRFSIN

# entrySmiles, inhibition at 30 min, 10 μM / %
measured = [
    ("Cc1nc2c([nH]1)c(=O)n(C)c(=O)n2Cc1ccco1", 71.8),
]

* * *

assay: Tissue distribution after single oral SZ-A (40 mg/kg) in SD rats, plasma and 12 tissues; format: in vivo; conditions: rat, Spleen, n=5
The entries below are paired with their reported Cmax.
observable: Cmax (ng/mL)

# entrySmiles, measurementUnits, recordedResult
rows = [
    ("OC[C@H]1NC[C@H](O)[C@@H](O)[C@@H]1O", "ng/mL", 660),
    ("OC[C@H]1NC[C@@H](O)[C@@H]1O", "ng/mL", 144),
    ("OC[C@H]1NCC[C@@H](O)[C@@H]1O", "ng/mL", 198),
]

* * *

The entries below are paired with their reported AUC(0-t).
assay: Tissue distribution after single oral SZ-A (40 mg/kg) in SD rats, plasma and 12 tissues; type: in vivo; conditions: Sprague-Dawley, rat, Plasma, n=5, read-out: AUC(0-t)

# compound, AUC(0-t) / ng·h/mL
rows = [
    ("OC[C@H]1NC[C@@H](O)[C@@H]1O [DAB, 1,4-dideoxy-1,4-imino-D-arabinitol]", 2360),
    ("OC[C@H]1NCC[C@@H](O)[C@@H]1O [FA, fagomine]", 1800),
    ("OC[C@H]1NC[C@H](O)[C@@H](O)[C@@H]1O [DNJ, 1-deoxynojirimycin]", 13700),
]

* * *

experiment: Tissue distribution after single oral SZ-A (40 mg/kg) in SD rats, plasma and 12 tissues; assay type: in vivo; conditions: rat, Subcutaneous adipose tissue, n=5, read-out: Tmax
observable: Tmax

# entrySmiles, recordedResult
data = [
    ("OC[C@H]1NCC[C@@H](O)[C@@H]1O", "15 min"),
    ("OC[C@H]1NC[C@H](O)[C@@H](O)[C@@H]1O", "30 min"),
    ("OC[C@H]1NC[C@@H](O)[C@@H]1O", "30 min"),
]

* * *

experiment: Tissue distribution after single oral SZ-A (40 mg/kg) in SD rats, plasma and 12 tissues; type: in vivo; details: Sprague-Dawley, rat, muscle (thigh skeletal muscle), Muscle, n=5

# molecule, Cmax / ng/mL
records = [
    ("OC[C@H]1NCC[C@@H](O)[C@@H]1O [FA, fagomine]", 175),
    ("OC[C@H]1NC[C@@H](O)[C@@H]1O [DAB, 1,4-dideoxy-1,4-imino-D-arabinitol]", 188),
    ("OC[C@H]1NC[C@H](O)[C@@H](O)[C@@H]1O [DNJ, 1-deoxynojirimycin]", 725),
]

* * *

The entries below are paired with their reported Tmax.
experiment: Pharmacokinetic study: plasma levels after oral SZ-A in SD rats (LC-MS/MS, DAS 3.2.8); type: in vivo; conditions: both sexes, SD, rat, plasma, po, 25 mg/kg, plasma, oral SZ-A 25 mg/kg, n=8, read-out: Tmax
observable: Tmax (min)

# entrySmiles, recordedResult
records = [
    ("OC[C@H]1NC[C@@H](O)[C@@H]1O", 18.6),
    ("OC[C@H]1NCC[C@@H](O)[C@@H]1O", 30),
    ("OC[C@H]1NC[C@H](O)[C@@H](O)[C@@H]1O", 24.6),
]

* * *

assay: Tissue distribution after single oral SZ-A (40 mg/kg) in SD rats, plasma and 12 tissues; assay type: in vivo; settings: rat, Brain, n=5, read-out: Tmax
observable: Tmax (h)

# entrySmiles, recordedResult
records = [
    ("OC[C@H]1NC[C@H](O)[C@@H](O)[C@@H]1O", 2.52),
]

* * *

Assay: Pharmacokinetic study: plasma levels after oral SZ-A in SD rats (LC-MS/MS, DAS 3.2.8)
Type: in vivo
Conditions: both sexes, rat, plasma, oral SZ-A 25 mg/kg, n=8
Description: Twenty-four SD rats were fasted for 12 h (free access to water) and randomly classified into three groups (n = 8; half male and female) that received different doses of SZ-A solution (25, 50, and 200 mg/kg) via oral administration. […] Primary pharmacokinetic parameters, including Cmax, Tmax, area under the plasma concentration-time curve (AUC), t1/2, clearance rate, and the apparent volume of distribution, were calculated using DAS 3.2.8 (Bio Guider Co., Shanghai, China).

# compound, Cmax / ng/mL
records = [
    ("OC[C@H]1NC[C@H](O)[C@@H](O)[C@@H]1O [DNJ, 1-deoxynojirimycin]", 4950),
    ("OC[C@H]1NCC[C@@H](O)[C@@H]1O [FA, fagomine]", 616),
    ("OC[C@H]1NC[C@@H](O)[C@@H]1O [DAB, 1,4-dideoxy-1,4-imino-D-arabinitol]", 1050),
]

* * *

The entries below are paired with their reported half-life.
test: Tissue distribution after single oral SZ-A (40 mg/kg) in SD rats, plasma and 12 tissues; assay type: in vivo; details: rat, Aortic blood vessels, n=5

# compound, half-life [min]
data = [
    ("OC[C@H]1NCC[C@@H](O)[C@@H]1O [FA, fagomine]", 27),
    ("OC[C@H]1NC[C@H](O)[C@@H](O)[C@@H]1O [DNJ, 1-deoxynojirimycin]", 36),
    ("OC[C@H]1NC[C@@H](O)[C@@H]1O [DAB, 1,4-dideoxy-1,4-imino-D-arabinitol]", 27.6),
]

* * *

The entries below are paired with their reported Tmax.
experiment: Tissue distribution after single oral SZ-A (40 mg/kg) in SD rats, plasma and 12 tissues; assay type: in vivo; conditions: Sprague-Dawley, rat, Pancreas, n=5, read-out: Tmax
observable: Tmax (h)

# entrySmiles, recordedResult
records = [
    ("OC[C@H]1NC[C@H](O)[C@@H](O)[C@@H]1O", 0.5),
    ("OC[C@H]1NC[C@@H](O)[C@@H]1O", 1.9),
    ("OC[C@H]1NCC[C@@H](O)[C@@H]1O", 1.9),
]

* * *

test: Tissue distribution after single oral SZ-A (40 mg/kg) in SD rats, plasma and 12 tissues; assay type: in vivo; conditions: rat, Abdominal adipose tissue, n=5

# entrySmiles, half-life
measured = [
    ("OC[C@H]1NC[C@H](O)[C@@H](O)[C@@H]1O", "102 min"),
    ("OC[C@H]1NC[C@@H](O)[C@@H]1O", "43.8 min"),
    ("OC[C@H]1NCC[C@@H](O)[C@@H]1O", "38.4 min"),
]

* * *

The entries below are paired with their reported half-life.
assay: Tissue distribution after single oral SZ-A (40 mg/kg) in SD rats, plasma and 12 tissues; format: in vivo; settings: Sprague-Dawley, rat, Liver, n=5

# entrySmiles, half-life / min
data = [
    ("OC[C@H]1NCC[C@@H](O)[C@@H]1O", 36),
    ("OC[C@H]1NC[C@H](O)[C@@H](O)[C@@H]1O", 33),
    ("OC[C@H]1NC[C@@H](O)[C@@H]1O", 229),
]

* * *

assay: Pharmacokinetic study: plasma levels after oral SZ-A in SD rats (LC-MS/MS, DAS 3.2.8); assay type: in vivo; details: both sexes, rat, plasma, oral SZ-A 200 mg/kg, n=8
The entries below are paired with their reported Cmax.

# entrySmiles, measurementUnits, Cmax
rows = [
    ("OC[C@H]1NC[C@H](O)[C@@H](O)[C@@H]1O", "ng/mL", 19400),
    ("OC[C@H]1NCC[C@@H](O)[C@@H]1O", "ng/mL", 2580),
    ("OC[C@H]1NC[C@@H](O)[C@@H]1O", "ng/mL", 3640),
]

* * *

experiment: Pharmacokinetic study: plasma levels after oral SZ-A in SD rats (LC-MS/MS, DAS 3.2.8); format: in vivo; details: both sexes, rat, plasma, oral SZ-A 50 mg/kg, n=8, read-out: MRT(0-∞)

# entrySmiles, MRT inf [h]
records = [
    ("OC[C@H]1NCC[C@@H](O)[C@@H]1O", 1.67),
    ("OC[C@H]1NC[C@H](O)[C@@H](O)[C@@H]1O", 1.51),
    ("OC[C@H]1NC[C@@H](O)[C@@H]1O", 1.45),
]

* * *

The entries below are paired with their reported AUC(0-t).
assay: Tissue distribution after single oral SZ-A (40 mg/kg) in SD rats, plasma and 12 tissues; type: in vivo; conditions: rat, Heart, n=5, read-out: AUC(0-t)
observable: AUC(0-t) (ng·h/mL)

# entrySmiles, recordedResult
rows = [
    ("OC[C@H]1NCC[C@@H](O)[C@@H]1O", 382),
    ("OC[C@H]1NC[C@@H](O)[C@@H]1O", 469),
    ("OC[C@H]1NC[C@H](O)[C@@H](O)[C@@H]1O", 1340),
]

* * *

test: Pharmacokinetic study: plasma levels after oral SZ-A in SD rats (LC-MS/MS, DAS 3.2.8); format: in vivo; conditions: both sexes, rat, plasma, oral SZ-A 50 mg/kg, n=8
The entries below are paired with their reported Cmax.

# entrySmiles, Cmax [ng/mL]
data = [
    ("OC[C@H]1NCC[C@@H](O)[C@@H]1O", 1250),
    ("OC[C@H]1NC[C@@H](O)[C@@H]1O", 1770),
    ("OC[C@H]1NC[C@H](O)[C@@H](O)[C@@H]1O", 7080),
]

Numbers sourced from paper PMC9981942.
